Test system: Saccharomyces cerevisiae
Assay: protein stability index of tFT-peptide fusion (C-terminal peptide) (PSI (0-1 scale)); higher = more stable (slower turnover);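 further: PSI is a weighted mean of sequencing reads over stability bins, variants kept only with over 10 reads, mCherry proximal and sfGFP distal, peptide attached via GGGS linker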
Settings: genetic background: wild type; temperature: 30 C
Decide by protein stability index: equal to or exceeding 0.7 means 1 (yes), less means 0 (no).

1. PLCPPPPYPPRS
1 (yes)

Enquiry: Could you verify whether the entry LGNFENDEGSQK shows protein stability index of no less than 0.7?
Return: 1 (yes)

Enquiry: Could you verify whether the entry LAGSSSIVVVFG shows protein stability index of no less than 0.7?
Return: 0 (no)

---

System: Saccharomyces cerevisiae
Experiment: protein stability index of tFT-peptide fusion (C-terminal peptide) (PSI (0-1 scale)); higher = more stable (slower turnover)
Conditions: genetic background: doa10 deletion; temperature: 30 C
measurement-name: protein stability index
Lab note: record the figure alone, no unit after it.

1. AAFLGVLCWCWG
0.323
2. VIVKSRTTLYIS
0.092

Enquiry: What value of measured protein stability index is listed for VQLFCLRREMII ?
Return: 0.335

Enquiry: What value of measured protein stability index is listed for LVRGGLTNLFLF ?
Return: 0.181

Enquiry: What value of measured protein stability index is listed for FVSFFRWLLVSI ?
Return: 0.211

Enquiry: What value of measured protein stability index is listed for DRTRLFLLLIIA ?
Return: 0.139

Where these numbers come from: the supplement of paper PMC10724198
